# Assayed Target: human AspH (His6-AspH315–758) (Homo sapiens, UniProt Q12797)
# Construct: N-Terminally His6-tagged human AspH315–758 (His6-AspH315–758) was produced in Escherichia coli BL21 (DE3) cells; made in house; host or cells: Escherichia coli BL21 (DE3), pET-28a(+) vector
# Sequence (Q12797 315-758): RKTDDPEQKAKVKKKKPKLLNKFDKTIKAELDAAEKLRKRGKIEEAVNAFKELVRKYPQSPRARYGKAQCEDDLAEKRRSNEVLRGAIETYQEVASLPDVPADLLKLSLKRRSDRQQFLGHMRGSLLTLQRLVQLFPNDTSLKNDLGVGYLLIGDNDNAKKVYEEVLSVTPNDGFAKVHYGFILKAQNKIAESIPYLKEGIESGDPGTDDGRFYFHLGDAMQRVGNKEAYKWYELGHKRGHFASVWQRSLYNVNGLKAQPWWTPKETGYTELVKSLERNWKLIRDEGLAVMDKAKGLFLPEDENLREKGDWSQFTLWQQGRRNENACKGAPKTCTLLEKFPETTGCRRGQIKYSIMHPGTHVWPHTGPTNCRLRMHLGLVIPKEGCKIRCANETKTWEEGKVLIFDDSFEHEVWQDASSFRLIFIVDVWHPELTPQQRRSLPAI
# Protocol Text: SPE-MS AspH inhibition assay (hFX-CP101-119 substrate hydroxylation)
# Format: biochemical
# Conditions Used: AspH-inhibitor screening, 384-well Plate 1
Would you mind telling me the reported Plate 1 (% inhibition) of each entry?

Input: // fetch Plate 1 (% inhibition) for C=CCn1c(=O)c2cnc(Nc3ccc(N4CCN(C)CC4)cc3)nc2n1-c1cccc(C(C)(C)O)n1 ; system: human AspH (His6-AspH315–758) (Homo sapiens, UniProt Q12797)
Output: 5.75%

Look up Plate 1 (% inhibition) for the entries below, preserving their order.
1. Cc1ccc(Nc2nccc(N(C)c3ccc4c(C)n(C)nc4c3)n2)cc1S(N)(=O)=O
2. O=S(=O)(c1cccc2cnccc12)N1CCCNCC1
3. Nc1nc2[nH]cc(CCc3ccc(C(=O)N[C@@H](CCC(=O)[O-])C(=O)[O-])cc3)c2c(=O)[nH]1.O.O.O.O.O.O.O.[Na+].[Na+] [Pemetrexed, Disodium salt, Heptahydrate]

Output:
1. 4.18%
2. 1.01%
3. 6.49%

----------
# Assayed Target: human AspH (His6-AspH315–758) (Homo sapiens)
# Construct: N-Terminally His6-tagged human AspH315–758 (His6-AspH315–758) was produced in Escherichia coli BL21 (DE3) cells; made in house; host or cells: Escherichia coli BL21 (DE3), pET-28a(+) vector
# Sequence (Q12797 315-758): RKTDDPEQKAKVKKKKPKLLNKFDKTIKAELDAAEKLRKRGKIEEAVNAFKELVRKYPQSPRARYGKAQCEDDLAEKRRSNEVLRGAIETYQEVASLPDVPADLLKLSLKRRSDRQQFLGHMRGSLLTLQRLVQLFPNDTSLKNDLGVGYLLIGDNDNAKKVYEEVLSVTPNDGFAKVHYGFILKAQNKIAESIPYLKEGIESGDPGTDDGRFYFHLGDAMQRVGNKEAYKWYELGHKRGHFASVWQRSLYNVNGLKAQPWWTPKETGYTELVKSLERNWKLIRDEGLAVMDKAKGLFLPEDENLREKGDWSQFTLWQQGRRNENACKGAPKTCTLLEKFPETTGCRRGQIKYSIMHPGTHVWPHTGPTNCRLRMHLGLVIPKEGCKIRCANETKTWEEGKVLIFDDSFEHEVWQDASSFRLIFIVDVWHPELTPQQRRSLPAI
# Protocol Text: SPE-MS AspH inhibition assay (hFX-CP101-119 substrate hydroxylation)
# Assay type: biochemical
# Conditions Used: AspH-inhibitor screening, Plate 1-duplicate, substrate conversion
Quantity Kind: Plate 1-duplicate (% conversion)
// unit must come after the numeric part

Example compounds with recorded Plate 1-duplicate (% conversion):
Input: Please supply the value of reported Plate 1-duplicate (% conversion) for the item Nc1nc2[nH]cc(CCc3ccc(C(=O)N[C@@H](CCC(=O)O)C(=O)O)cc3)c2c(=O)[nH]1
Output: 46.95%

Input: Entry S=c1[nH]cnc2nc[nH]c12 needs its Plate 1-duplicate (% conversion) filled in; supply it.
Output: 46.74%

For every record below, what is its Plate 1-duplicate (% conversion)?
1. O=NN(CCCl)C(=O)NCCCl
2. Nc1nc2nc[nH]c2c(=S)[nH]1
3. COCCNCc1ccc(-c2cc3nccc(Oc4ccc(NC(=S)NC(=O)Cc5ccc(F)cc5)cc4F)c3s2)nc1
4. O=C(Nc1cccnc1)N1CCC(Cc2cccc(Oc3ccc(C(F)(F)F)cn3)c2)CC1
5. CN(N=O)C(=O)N[C@@H](C=O)[C@@H](O)[C@H](O)[C@H](O)CO
6. O=C(CCBr)N1CCN(C(=O)CCBr)CC1

Output:
1. 48.11%
2. 48.00%
3. 18.33%
4. 58.13%
5. 49.58%
6. 49.93%

Input: State, in one line, measured Plate 1-duplicate (% conversion) of O=C1c2c(O)ccc(O)c2C(=O)c2c(NCCNCCO)ccc(NCCNCCO)c21
Output: 63.05%
